# test-method-notes: Oral bioavailability in rat
# Assay type: ADME, organism-based
# particulars: in vivo
readout-label: bioavailability (%)

>  <line-notation>
CCc1nc2cc3c(cc2o1)CCN(CCCSc1nnc(-c2cccc4nc(C)ccc24)n1C)CC3

>  <observed>
31

$$$$
>  <line-notation>
CCc1nc2cc3c(cc2o1)CCN(CCCSc1nnc(-c2ccc(C(F)(F)F)cc2)n1C)CC3

>  <observed>
17

$$$$
>  <line-notation>
Cc1nc2cc3c(cc2o1)CCN(CCCSc1nnc(-c2ccc(C(F)(F)F)cc2)n1C)CC3

>  <observed>
17

$$$$
>  <line-notation>
Cc1ccc2c(-c3nnc(SCCCN4CCc5cc6onc(C)c6cc5CC4)n3C)cccc2n1

>  <observed>
22

$$$$
